// provenance: PubChem BioAssay (NCATS)

# ASSAY PROCEDURE: qHTS assay for small molecule activators of the nuclear factor-kappa B (NF-kB) signaling pathway (AID 651749); further: % of control where 0% means no effect
# STUDY CONDITIONS: NF-kB-bla ME-180 cells, beta-lactamase FRET ratio, 16 h; hits give high values
Records with an inconclusive call do not appear.
PROPERTY NAME: activation (%)
Numbers only, in %.

Sample answers from the record:
O=CCCCC=O
3.18
CC1=C2[C@@H]([C@H](C)CC[C@H]2/C=C(\C)C(=O)O)[C@H](O)C1
-0.741
CC1=CCC(C(C)(C)O)CC1 (stereo not given)
-1.34
CCOC(C)=O
-0.483

Now look at this entry.
# activation (compound: `O=C(O)CCC(=O)C(=O)O` ) is 0.211

###

# Tested on: Tov-21-G
# ASSAY PROCEDURE: Primary qHTS to identify gynecologic anti-cancer compounds using libraries of approved drugs and bioactive compounds (AID 1345084); further: on the % scale 0 is the no-effect control and ±100 the full control effect; nearly all actives have a fitted effect of over 55% in size
# STUDY CONDITIONS: Gynecologic cancer cell panel viability, ATPlite luminescence, 48 h; series mostly up to 57.5 µM
Inconclusive results are not listed. Calls of active or inactive are those of the source. Calls come from the whole dose curve; as a rule, active = well fitted cell-killing curve with a large enough effect; inconclusive = small, poorly fitted or top-dose-only effect, or effect the other way; inactive = flat fitted curve, though single readings scatter.
PROPERTY NAME: activity change, negative = cytotoxicity

Record C/C=C(\C)C(=O)O[C@H]1[C@H](O)[C@]2(COC(C)=O)[C@H](O)C[C@]3(C)C(=CCC4[C@@]5(C)CC[C@H](O[C@@H]6O[C@H](C(=O)O)[C@@H](O[C@@H]7O[C@H](CO)[C@@H](O)[C@H](O)[C@H]7O)[C@H](O)[C@H]6O[C@@H]6O[C@H](CO)[C@@H](O)[C@H](O)[C@H]6O)[C@](C)(CO)C5CC[C@]43C)[C@@H]2CC1(C)C (some centres not stated) ; system Tov-21-G; activity change, negative = cytotoxicity = 0.503% [at 11.6 µM] (inactive)

###

# Tested on: HACAT
# ASSAY PROCEDURE: qHTS assay to identify novel small-molecules to repurpose for Merkel cell carcinoma treatment (AID 1296009); further: nearly all actives have a fitted effect of over 60% in size
# STUDY CONDITIONS: MCC and control cell lines, CellTiter-Glo viability, 72 h; at 44.8 µM (top of the series) unless noted
Records with an inconclusive call do not appear. Activity calls are given as the source filed them. The call rests on the fitted dose curve; in most records, active means well fitted inhibition curve with a large enough effect; inconclusive means small, poorly fitted or top-dose-only effect; inactive means flat fitted curve, though single readings scatter.
PROPERTY NAME: outcome

Solved cases (6 shown):
COc1ccc(/C=C/C(=O)O[C@@H]2[C@@H](O)[C@H](C)O[C@@H](OC3C4C=COC(O[C@@H]5O[C@H](CO)[C@@H](O)[C@H](O)[C@H]5O)C4C4(CO)OC34)[C@@H]2O)cc1OC (some centres not stated)
inactive [at 17.4 µM]
O=C(O)CCc1cccc(O[C@@H]2O[C@H](CO)[C@@H](O)[C@H](O)[C@H]2O)c1O
inactive
COc1cc([C@H]2OC[C@]3(OC(C)=O)[C@@H](c4ccc(O[C@@H]5O[C@H](CO)[C@@H](O)[C@H](O)[C@H]5O)c(OC)c4)OC[C@H]23)ccc1O
inactive [at 17.4 µM]
C[C@@H]1C/C=C/C=C\C=C\C=C\[C@H](O[C@@H]2O[C@H](C)[C@@H](O)[C@H](N)[C@@H]2O)C[C@@H]2O[C@](O)(C[C@@H](O)C[C@H]3O[C@@H]3/C=C/C(=O)O1)C[C@H](O)[C@H]2C(=O)O
inactive [at 17.4 µM]
C/C=C/C=C/C=C/C(=O)O[C@@H]1[C@@H](OC)C2=C(C(=O)N(C(C)C(=O)O)C2)[C@@]2(C)CCCC(C)(C)[C@H]12 (some centres not stated)
inactive [at 17.4 µM]
CC1(C)CC2C(O)C3=C(CC(C)(O)C2C1)C(=O)OC3O (configuration not stated)
inactive

Documented outcome of CC1=CC(=O)CC(C)(C)C1(O)CCC(C)O (configuration not stated) : inactive
